experiment: Protein binding in mouse plasma; assay type: ADME, cell-free; conditions: read-out: PPB (converted)
metric: fraction unbound

Cc1cc2c(cc(C(=O)N[C@H](CO)c3ccc(S(=O)(=O)CC(=O)O)cc3)n2C)c(Cl)c1Cl yielded fraction unbound of 0.004

----------
Target: UniProt O43175
Sequence (O43175 whole entry): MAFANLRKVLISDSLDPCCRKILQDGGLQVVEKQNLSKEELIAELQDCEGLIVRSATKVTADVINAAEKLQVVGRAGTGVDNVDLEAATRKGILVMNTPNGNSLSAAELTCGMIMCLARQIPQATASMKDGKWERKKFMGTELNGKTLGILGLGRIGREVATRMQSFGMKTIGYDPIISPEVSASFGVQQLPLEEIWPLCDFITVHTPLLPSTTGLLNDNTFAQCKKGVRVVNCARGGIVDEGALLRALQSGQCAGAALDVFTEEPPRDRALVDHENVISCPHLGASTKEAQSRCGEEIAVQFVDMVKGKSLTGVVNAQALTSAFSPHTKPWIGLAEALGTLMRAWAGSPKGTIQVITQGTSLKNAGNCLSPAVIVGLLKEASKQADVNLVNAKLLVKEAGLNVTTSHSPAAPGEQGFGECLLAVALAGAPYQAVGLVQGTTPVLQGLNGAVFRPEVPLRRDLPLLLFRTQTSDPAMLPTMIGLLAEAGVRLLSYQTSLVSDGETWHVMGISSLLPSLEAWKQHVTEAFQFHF
Experiment: Binding affinity to human PHGDH ( 1 to 533 residues) expressed in Escherichia coli Rosetta (DE3) by Sypro-orange dye based differential scanning fluorimetry
metric: pKd
The read-out pKd is expressed as -log10 of concentration in moles per litre.

Query NC(=O)c1ccc(F)c(Cl)c1 on UniProt O43175; pKd returned: 2.82

All values here come from ChEMBL document CHEMBL4373702.
